Quick reference: viability, T/C of the listed items.
Tested on: 313798-341-R-J2-PDC spheroids, viability;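 also: spheroids exposed to compounds for seven days; 100% = DMSO vehicle control viability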
Assay: Anticancer human tumor 313798-341-R-J2-PDC patient-derived cervical squamous cell carcinoma cell line growth inhibition [PI3K]
Conditions: second compound 1 µM; first compound 0.316 µM; active compounds read low; spheroids with HUVEC and MSC
Your answer is read as %, so omit the unit and give the number.

Check out these entries, answers already filled in.
Note down viability, T/C recorded for C=CC(=O)N1CCN(c2nc(=O)n(-c3c(C)ccnc3C(C)C)c3nc(-c4c(O)cccc4F)c(F)cc23)C(C)C1 (stereo not drawn) + CC(Nc1ccc2c(c1)OCCn1cc(N3C(=O)OCC3C(F)F)nc1-2)C(N)=O
54.8

Note down viability, T/C recorded for CC1(C)CCC(Nc2ncc(C(F)(F)F)c(-c3c[nH]c4c(P(C)(C)=O)c(C#N)ccc34)n2)CN1 (stereo not drawn) + Cc1nc(NC(=O)N2CCCC2C(N)=O)sc1-c1ccnc(C(C)(C)C(F)(F)F)c1
35.5

Shifting focus to the compound that follows.
Note down viability, T/C recorded for CNC(=O)c1ccc(N2C(=S)N(c3ccc(C#N)c(C(F)(F)F)c3)C(=O)C2(C)C)cc1F + Cc1nc(NC(=O)N2CCCC2C(N)=O)sc1-c1ccnc(C(C)(C)C(F)(F)F)c1
96.2
